Source listed as patent US20240132578A1.

molecular target: HIV-1 Env of isolate MGRM-C-010 (subtype C) (HIV-1); test: cell-based or functional assay
property: IC50 (µg/mL), pseudovirus neutralization

Examples with answers:
# binder, IC50 (µg/mL), pseudovirus neutralization
data = [
    ("PGT-125 (antibody, V domains shown) VH: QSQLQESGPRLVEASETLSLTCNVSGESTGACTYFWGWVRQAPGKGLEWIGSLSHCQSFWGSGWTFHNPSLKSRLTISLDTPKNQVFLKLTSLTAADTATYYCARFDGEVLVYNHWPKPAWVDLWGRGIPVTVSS VL: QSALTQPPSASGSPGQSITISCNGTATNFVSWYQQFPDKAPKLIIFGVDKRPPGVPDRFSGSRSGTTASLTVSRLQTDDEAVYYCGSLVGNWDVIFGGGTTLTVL", "> 50 µg/mL"),
    ("PGT-123 (antibody, V domains shown) VH: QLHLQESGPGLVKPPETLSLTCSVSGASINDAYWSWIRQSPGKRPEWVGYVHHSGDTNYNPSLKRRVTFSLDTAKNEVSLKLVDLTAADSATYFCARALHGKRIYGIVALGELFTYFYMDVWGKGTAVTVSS VL: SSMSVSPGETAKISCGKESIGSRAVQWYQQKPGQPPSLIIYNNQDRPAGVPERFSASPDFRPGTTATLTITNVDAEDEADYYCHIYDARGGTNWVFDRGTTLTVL", "> 50 µg/mL"),
    ("PGT-127 (antibody, V domains shown) VH: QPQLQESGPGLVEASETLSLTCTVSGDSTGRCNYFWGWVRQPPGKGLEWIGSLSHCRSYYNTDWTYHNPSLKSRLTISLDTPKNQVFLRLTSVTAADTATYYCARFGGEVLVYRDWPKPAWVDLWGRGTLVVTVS VL: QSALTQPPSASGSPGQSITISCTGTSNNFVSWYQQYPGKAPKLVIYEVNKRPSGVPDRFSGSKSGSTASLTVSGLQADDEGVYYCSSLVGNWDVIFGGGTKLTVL", "> 50 µg/mL"),
]

Turning to the following binder.
Complete the entry with IC50 (µg/mL), pseudovirus neutralization for PGT-126 (antibody, V domains shown) VH: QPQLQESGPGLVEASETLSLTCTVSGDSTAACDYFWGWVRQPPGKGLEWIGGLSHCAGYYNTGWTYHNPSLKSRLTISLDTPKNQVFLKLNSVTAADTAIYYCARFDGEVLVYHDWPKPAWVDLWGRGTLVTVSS VL: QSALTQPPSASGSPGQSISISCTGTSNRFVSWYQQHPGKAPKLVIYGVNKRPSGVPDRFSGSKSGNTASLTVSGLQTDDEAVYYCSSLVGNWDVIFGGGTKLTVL > 50 µg/mL
